- protocol notes: Cytotoxicity against human HT1080 cells assessed as growth inhibition after 48 hrs by MTT assay
- Format: functional, cell-based
- reported conditions: HT-1080, 48 h
property: pIC50
Answer as the number alone; pIC50 is minus log10 of concentration in mol/L.

pIC50 reported for this molecule CC[C@H]1OC(=O)[C@H](C)[C@@H](O[C@H]2C[C@@](C)(OC)[C@@H](O)[C@H](C)O2)[C@H](C)[C@@H](O[C@@H]2O[C@H](C)C[C@H](N(C)CCN(C)[C@H]3C[C@@H](C)O[C@@H](O[C@@H]4[C@@H](C)[C@H](O[C@H]5C[C@@](C)(OC)[C@@H](O)[C@H](C)O5)[C@@H](C)C(=O)O[C@H](CC)[C@@](C)(O)[C@H](O)[C@@H](C)/C(=N\OCOCCOC)[C@H](C)C[C@@]4(C)O)[C@@H]3O)[C@H]2O)[C@](C)(O)C[C@@H](C)[C@H](O)[C@H](C)[C@@H](O)[C@]1(C)O : 4.66

Values from ChEMBL document CHEMBL3217717
